Hey, just so you know, these numbers are from ChEMBL document CHEMBL5058577.

Population Normal (%) values, listed per item
Test system: U2OS
TEST NAME: Multiplex assay against U2OS
Type: toxicity, cell-based
APPLIED CONDITIONS: human, 24 h, 10 µM, compound concentration 10 uM, replicate 1
Only the number, expressed in %, is required.

IN: Look up and report measured Population Normal (%) (U2OS) for the following molecule: CCCN1CCC[C@@H]2Cc3n[nH]cc3C[C@H]21.Cl [QUINPIROLE HYDROCHLORIDE]
OUT: 97

IN: Look up and report measured Population Normal (%) (U2OS) for the following molecule: `CN1CCN(c2nc3cc(C(F)(F)F)ccc3n3cccc23)CC1.O=C(O)/C=C\C(=O)O.O=C(O)/C=C\C(=O)O`
OUT: 96

The record that follows has no Population Normal (%) shown yet.
IN: Look up and report measured Population Normal (%) (U2OS) for the following molecule: `CN(C)CCCc1cc(C(=O)Nc2ccc(-c3ccncc3)cc2)ccc1O.Cl.Cl`
OUT: 95

###

Test system: Fibroblast
TEST NAME: Multiplex assay against human fibroblast
Assay type: toxicity, cell-based
APPLIED CONDITIONS: 24 h, 10 µM, compound concentration 10 uM, replicate 1
MEASUREMENT NAME: Population Mitotic Cells (%)
Only the number, expressed in %, is required.

Examples with their reported Population Mitotic Cells (%) follow.
IN: Give Population Mitotic Cells (%) for Cl.Clc1ccc2nsnc2c1NC1=NCCN1 [TIZANIDINE HYDROCHLORIDE]
OUT: 54

IN: Give Population Mitotic Cells (%) for CCCN1CCC[C@@H]2Cc3n[nH]cc3C[C@H]21.Cl [QUINPIROLE HYDROCHLORIDE]
OUT: 25

The record that follows has no Population Mitotic Cells (%) shown yet.
IN: Give Population Mitotic Cells (%) for `CCCC(CCC)C(=O)O`
OUT: 50

###

Tested on: U2OS
TEST NAME: Multiplex assay against U2OS
Type: toxicity, cell-based
APPLIED CONDITIONS: human, 12 h, 1 µM, compound concentration 1 uM, replicate 2
Population Mitotic Cells (%) values, listed per item
Only the number, expressed in %, is required.

Examples with their reported Population Mitotic Cells (%) follow.
IN: Give Population Mitotic Cells (%) for CN1CCN2c3ncccc3Cc3ccccc3C2C1 (stereo unspecified) [MIRTAZAPINE]
OUT: 0

IN: Give Population Mitotic Cells (%) for C[C@H](NC(=O)c1c(C(F)F)nn(C)c1Oc1cccc(C(F)(F)F)c1)c1ccc(C(=O)O)cc1 [PALUPIPRANT]
OUT: 8

Next:
IN: Give Population Mitotic Cells (%) for Cc1ccc(/C(=C\CN2CCCC2)c2ccccn2)cc1 [TRIPROLIDINE]
OUT: 14

IN: Give Population Mitotic Cells (%) for c1cc(OCCCN2CCCCC2)ccc1CN1CCCCC1 [JNJ-5207852]
OUT: 41

IN: Give Population Mitotic Cells (%) for CSc1ccccc1N1CCN(CCCCCC(=O)NC2CCCc3ccccc32)CC1.Cl (stereo unspecified)
OUT: 63

IN: Give Population Mitotic Cells (%) for O=C(O)Cc1ccccc1Nc1c(Cl)cccc1Cl [DICLOFENAC]
OUT: 15

###

Population Fragmented Nuclei (%) values, listed per item
Tested on: Fibroblast
TEST NAME: Multiplex assay against human fibroblast
Type: toxicity, cell-based
APPLIED CONDITIONS: 12 h, 10 µM, compound concentration 10 uM, replicate 2
Only the number, expressed in %, is required.

IN: Give Population Fragmented Nuclei (%) for `COc1cc(C(=O)N(CCCc2ccccc2)Cc2ccc(CC(=O)O)cc2)cc(OC)c1C`
OUT: 25

IN: Give Population Fragmented Nuclei (%) for `CN1CCN(c2nc3cc(C(F)(F)F)ccc3n3cccc23)CC1.O=C(O)/C=C\C(=O)O.O=C(O)/C=C\C(=O)O`
OUT: 35

IN: Give Population Fragmented Nuclei (%) for `CCCC(CCC)C(=O)O`
OUT: 16

IN: Give Population Fragmented Nuclei (%) for `CSCC[C@H](NC=O)C(=O)N[C@@H](CC(C)C)C(=O)N[C@@H](Cc1ccccc1)C(=O)O`
OUT: 27

IN: Give Population Fragmented Nuclei (%) for CN1CCN2c3ncccc3Cc3ccccc3C2C1 (stereo not given)
OUT: 27

###

System: HEK-293T
TEST NAME: Multiplex assay against HEK293T
Format: toxicity, cell-based
APPLIED CONDITIONS: human, 24 h, 10 µM, compound concentration 10 uM, replicate 1
Population Pyknosed Nuclei (%) values, listed per item
Only the number, expressed in %, is required.

IN: Give Population Pyknosed Nuclei (%) for `CN1CCN(c2nc3cc(C(F)(F)F)ccc3n3cccc23)CC1.O=C(O)/C=C\C(=O)O.O=C(O)/C=C\C(=O)O`
OUT: 13

IN: Give Population Pyknosed Nuclei (%) for `CC(C)(C)c1ccc(S(=O)(=O)Nc2ccc(Cl)cc2C(=O)c2cc[n+]([O-])cc2)cc1`
OUT: 12

IN: Give Population Pyknosed Nuclei (%) for `COc1cc(NC(=O)CCN2CCC(OC(=O)Nc3ccccc3-c3ccccc3)CC2)c(Cl)cc1CNC[C@H](O)c1ccc(O)c2[nH]c(=O)ccc12`
OUT: 0

IN: Give Population Pyknosed Nuclei (%) for `C[C@H]1[C@H]2CC[C@H]3[C@@H]4CC=C5C[C@@H](N(C)C)CC[C@]5(C)[C@H]4CC[C@]23CN1C`
OUT: 11

IN: Give Population Pyknosed Nuclei (%) for `CCOc1c2c(c(OCC)c3ncccc13)CN(c1ccc(CS(=O)(=O)NC(=O)Cc3ccccc3OC)cc1C)C2=O`
OUT: 14

Next:
IN: Give Population Pyknosed Nuclei (%) for CCCN1CCC[C@@H]2Cc3n[nH]cc3C[C@H]21.Cl [QUINPIROLE HYDROCHLORIDE]
OUT: 11

IN: Give Population Pyknosed Nuclei (%) for `Oc1c(CN2CCN(c3ccccn3)CC2)cc(Cl)c2cccnc12`
OUT: 15

###

Tested on: Fibroblast
TEST NAME: Multiplex assay against human fibroblast
Assay type: toxicity, cell-based
APPLIED CONDITIONS: 48 h, 1 µM, compound concentration 1 uM, replicate 2
MEASUREMENT NAME: Population Membrane Permeable-Phenotype (%)
Only the number, expressed in %, is required.

IN: Give Population Membrane Permeable-Phenotype (%) for `CC(C)(C)c1ccc(S(=O)(=O)Nc2ccc(Cl)cc2C(=O)c2cc[n+]([O-])cc2)cc1`
OUT: 6

IN: Give Population Membrane Permeable-Phenotype (%) for CN1CCN2c3ncccc3Cc3ccccc3C2C1 (stereo not given)
OUT: 11

IN: Give Population Membrane Permeable-Phenotype (%) for Cc1ccccc1C(=O)Nc1ccc(C(=O)N2CCCC(N(C)C)c3ccccc32)cc1.Cl (stereo not given)
OUT: 8

IN: Give Population Membrane Permeable-Phenotype (%) for `CC(=O)NCCc1c(Cc2ccccc2)[nH]c2ccccc12`
OUT: 9

IN: Give Population Membrane Permeable-Phenotype (%) for COc1ccc2c(c1)C(C(=O)N(Cc1ccc(N(C)C)cc1)c1ccc(C(C)C)cc1)CCC2.Cl (stereo not given)
OUT: 5

IN: Give Population Membrane Permeable-Phenotype (%) for O=S(=O)(c1ccccc1)c1cnc2c(N3CCNCC3)cccc2c1 [INTEPIRDINE]
OUT: 1

IN: Give Population Membrane Permeable-Phenotype (%) for `O=C1COc2nccc(-c3ccccc3F)c2CN1Cc1cc(C(F)(F)F)cc(C(F)(F)F)c1`
OUT: 1

IN: Give Population Membrane Permeable-Phenotype (%) for `COc1cc(C(=O)N(CCCc2ccccc2)Cc2ccc(CC(=O)O)cc2)cc(OC)c1C`
OUT: 3

IN: Give Population Membrane Permeable-Phenotype (%) for `N#Cc1c(N)nc(SCc2csc(-c3ccc(Cl)cc3)n2)c(C#N)c1-c1ccc(OCCO)cc1`
OUT: 6

IN: Give Population Membrane Permeable-Phenotype (%) for `CCCn1c(=O)c2[nH]c(C3CCCC3)nc2n(CCC)c1=O`
OUT: 5

IN: Give Population Membrane Permeable-Phenotype (%) for `c1cc(OCCCN2CCCCC2)ccc1CN1CCCCC1`
OUT: 5

IN: Give Population Membrane Permeable-Phenotype (%) for `CN(C)CCCc1cc(C(=O)Nc2ccc(-c3ccncc3)cc2)ccc1O.Cl.Cl`
OUT: 1

IN: Give Population Membrane Permeable-Phenotype (%) for `Oc1c(CN2CCN(c3ccccn3)CC2)cc(Cl)c2cccnc12`
OUT: 4

IN: Give Population Membrane Permeable-Phenotype (%) for CCCN1CCC[C@@H]2Cc3n[nH]cc3C[C@H]21.Cl [QUINPIROLE HYDROCHLORIDE]
OUT: 8

IN: Give Population Membrane Permeable-Phenotype (%) for `COc1c(C)cc(NC(=O)c2nn(Cc3ccc(F)cc3)c3c2CN(C(=O)c2ccc[nH]2)C[C@]3(C)C(N)=O)cc1C`
OUT: 10

IN: Give Population Membrane Permeable-Phenotype (%) for CSc1ccccc1N1CCN(CCCCCC(=O)NC2CCCc3ccccc32)CC1.Cl (stereo not given)
OUT: 0

IN: Give Population Membrane Permeable-Phenotype (%) for `CC1(COc2ccc3c(c2)ncn3-c2ccc3cccc(N4CCC(N)CC4)c3n2)COC1`
OUT: 5
